Molecular target: UniProt P09038
Sequence (P09038 143-288 limits assumed): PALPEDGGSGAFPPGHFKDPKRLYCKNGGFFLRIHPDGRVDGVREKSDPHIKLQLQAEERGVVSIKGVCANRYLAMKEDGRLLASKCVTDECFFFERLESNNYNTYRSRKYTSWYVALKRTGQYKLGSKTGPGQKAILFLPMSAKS
Assay: Dissociation constant for Fibroblast growth factor 2
Measured Kd accompanies every entry in the list below.
Quick note: give the figure in mM, leave out the unit.

Solved cases below.
INSERT INTO assay_data (molecule, attribute_measured, reported_value) VALUES
  ('CO[C@@H]1CCO[C@H](COS(=O)(=O)O)C1OS(=O)(=O)O (some centres undefined)', 'Kd', 17.4),
  ('O=S(=O)(O)OC[C@H]1OCC[C@@H](OCCCOc2ccccc2)C1OS(=O)(=O)O (some centres undefined)', 'Kd', 7.5),
  ('COC1C(OCc2ccccc2)C2COC(O2)C1OS(=O)(=O)O (centres undefined)', 'Kd', 8.02);

Could you now look at the following molecule, please?
[ask] Fill in the blank: the reported Kd of CO[C@H]1O[C@H](COS(=O)(=O)O)[C@@H](OS(=O)(=O)O)[C@H](OS(=O)(=O)O)[C@@H]1OS(=O)(=O)O is ____.
[reply] 0.343
